Measured values drawn from ChEMBL document CHEMBL3045755 for this set.

SYSTEM: 3-ketoacyl-CoA synthase 5 (Arabidopsis thaliana)
Sequence (whole entry): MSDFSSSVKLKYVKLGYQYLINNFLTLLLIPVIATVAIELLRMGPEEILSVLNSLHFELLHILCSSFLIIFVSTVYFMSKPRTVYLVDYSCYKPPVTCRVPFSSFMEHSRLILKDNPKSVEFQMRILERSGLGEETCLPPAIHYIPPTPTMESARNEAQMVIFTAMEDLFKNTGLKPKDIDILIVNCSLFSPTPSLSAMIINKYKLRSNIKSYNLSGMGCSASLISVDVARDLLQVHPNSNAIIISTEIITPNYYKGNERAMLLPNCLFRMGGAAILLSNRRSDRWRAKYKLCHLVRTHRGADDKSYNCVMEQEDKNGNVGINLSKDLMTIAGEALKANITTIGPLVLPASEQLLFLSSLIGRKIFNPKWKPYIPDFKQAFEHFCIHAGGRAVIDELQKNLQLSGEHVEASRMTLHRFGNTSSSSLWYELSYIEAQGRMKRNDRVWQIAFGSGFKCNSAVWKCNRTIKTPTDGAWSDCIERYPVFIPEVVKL
MEASUREMENT PROTOCOL: Inhibition of Arbidopsis thaliana C-terminal His-tagged CER60 expressed in Saccharomyces cerevisiae INVSc1 at 100 uM after 18 to 20 hr by GC/MS analysis
Active and inactive are the calls of the source. The calls are words filed in the database; no cut-off is given here.

COMPOUND: CC(C)N(C(=O)SCC(Cl)=C(Cl)Cl)C(C)C [TRIALLATE]
inhibition: Active
--
COMPOUND: CC(C)N(C(=O)COc1nnc(C(F)(F)F)s1)c1ccc(F)cc1
inhibition: Active
--
COMPOUND: CCOC1Oc2ccc(OS(C)(=O)=O)cc2C1(C)C (centres undefined) [ETHOFUMESATE]
inhibition: inactive
--
COMPOUND: CN(C)C(=O)C(c1ccccc1)c1ccccc1 [DIPHENAMIDE]
inhibition: inactive
